# target of assay: ER (Homo sapiens, UniProt P03372)
# Construct: host or cells: T47D and MCF7 human breast cancer cells
# assay procedure: ER degradation activity, in-cell western blot analysis in T47D cells
# Format: cell-based
# condition info: compounds 16 hours, Table A does not say whether T47D or MCF7, read-out: Potency (DC50)
Below, each entry is listed with its recorded DC50.
metric: DC50

>  <compound>
C[C@@H]1Cc2c([nH]c3ccccc23)[C@@H](c2c(F)cc(C3CCC(C(=O)N4CCC(N5Cc6cc7c(cc6C5)C(=O)N(C5CCC(=O)NC5=O)C7=O)CC4)CC3)cc2F)N1CC(F)(F)CO (stereo partly drawn)

>  <target of assay>
ER (Homo sapiens, UniProt P03372)

>  <reported value>
> 100 nM

$$$$
>  <compound>
C[C@@H]1Cc2cc(O)ccc2C(c2ccc(C3CCC4(CC3)CCN(C(=O)CN3Cc5cc6c(cc5C3)C(=O)N(C3CCC(=O)NC3=O)C6=O)CC4)cc2)N1CC(F)F (stereo partly drawn)

>  <target of assay>
ER (Homo sapiens, UniProt P03372)

>  <reported value>
10 to 100 nM

$$$$
>  <compound>
C[C@@H]1Cc2cc(O)ccc2[C@@H](c2ccc(C(=O)N3CC4(CCN(C(=O)CN5Cc6cc7c(cc6C5)C(=O)N(C5CCC(=O)NC5=O)C7=O)CC4)C3)cc2)N1CC(F)F (stereo partly drawn)

>  <target of assay>
ER (Homo sapiens, UniProt P03372)

>  <reported value>
< 10 nM

$$$$

Attribution: patent US20240190880A1
